# assay.details: Thermal stability assessment by nanoDSC
# Type: physicochemical
# details: 1 mg/mL in PBS, scan 25-100° C. at 1° C./min
assay.endpoint: ONSET MELTING (°C)
Answers are plain numbers, in °C.

[[record]]
molecule = "SEQ ID NO: 10: optimized CTGF-binding hNGAL lipocalin mutein (protein, lipocalin mutein) QDSTSDLIPAPPLSKVPLQQNFQDNQFQGKWYVVGLAGNAILREDKQPAKMFATIYELKEDKSYDVTSVRFEAKSCSYTIKTFVPGSQPGEFTAGNIKSAPGQTSTLVRVVSTNYNQHAMVFWKSVAGTRESFNIALYGRTKELTSELKENFIRFSKSLGLPENHIVFPVPIDQCIDG"
measured_value = 50

[[record]]
molecule = "SEQ ID NO: 23: optimized CTGF-binding hNGAL lipocalin mutein (protein, lipocalin mutein) QDSTSDLIPAPPLSKVPLQQNFQDNQFQGKWYVVGVAGNAILRPDKQPAKMFATIYELKEDKSYDVTSVRFEAKSCKYTIKTFVPGSQPGEFTSGQIKSAPGQTSTLVRVVSTNYNQHAMVFFKHVSQNREIFVITLYGRTKELTSELKENFIRFSKSLGLPENHIVFPVPIDQCIDG"
measured_value = 55


What ONSET MELTING value was documented for this molecule, SEQ ID NO: 36: optimized CTGF-binding hNGAL lipocalin mutein (protein, lipocalin mutein) QDSTSDLIPAPPLSKVPLQQNFQDNQFQGKWYVVGWAGNVKLREDKQPAKMSATIYELKEDKSYDVTEVVFEQKKCHYIIKTFVPGSQPGEFTAGDIKSPPGYTSSLVRVVSTNYNQHAMVFFKKVGQNREFFWITLYGRTKELTSELKENFIRFSKSLGLPENHIVFPVPIDQCIDG ?
58
